molecular target: Cholecystokinin receptor type A (Cavia porcellus, UniProt Q63931); test: Binding affinity towards cholecystokinin type A receptor in guinea pig pancreas by using [125I]BH-CCK-8 as radioligand; format: tissue-based
Sequence (Q63931 whole entry): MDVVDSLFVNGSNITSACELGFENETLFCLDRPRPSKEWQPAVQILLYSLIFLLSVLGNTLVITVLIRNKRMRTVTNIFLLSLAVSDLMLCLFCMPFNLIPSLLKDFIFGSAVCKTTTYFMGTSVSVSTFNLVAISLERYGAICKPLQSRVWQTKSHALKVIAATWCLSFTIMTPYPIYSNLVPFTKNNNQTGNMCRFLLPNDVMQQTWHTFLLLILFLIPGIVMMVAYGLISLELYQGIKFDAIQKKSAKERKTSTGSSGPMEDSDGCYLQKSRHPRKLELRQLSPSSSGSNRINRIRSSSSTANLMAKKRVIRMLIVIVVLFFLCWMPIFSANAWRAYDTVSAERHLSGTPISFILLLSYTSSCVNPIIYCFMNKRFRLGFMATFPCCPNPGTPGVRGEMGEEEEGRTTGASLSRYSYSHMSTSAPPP
pIC50: −log10 of the molar value. *1 amine or outer side, *2 acyl side, *3 side chain or, on linkers, in order; H or OH if unused. Where a SMILES comes first, the peptide text is derived from it. Side-chain parts run from the residue outwards. The star is where a group is joined. X8 = Clc1ccc(N*)c(Cl)c1; Boc = CC(C)(C)OC(=O)*; X7 = Clc1cccc(N*)c1Cl; CO = O=C([*:1])[*:2]
Experimental readout: pIC50

(a) Cc1ccccc1/N=C(/S)NCCCC[C@H](NC(=O)[C@H](Cc1c[nH]c2ccccc12)NC(=O)OC(C)(C)C)C(=O)N[C@@H](CC(=O)O)C(=O)N[C@@H](Cc1ccccc1)C(N)=O
(b) CC(C)(C)OC(=O)N[C@@H](Cc1c[nH]c2ccccc12)C(=O)N[C@@H](CCCCNC(=O)Nc1ccc(Cl)cc1Cl)C(=O)N[C@@H](CC(=O)O)C(=O)N[C@@H](Cc1ccccc1)C(N)=O (Boc-WK([CO-X8])DF-NH2)
(c) CC(C)(C)OC(=O)N[C@@H](Cc1c[nH]c2ccccc12)C(=O)N[C@@H](CCCCNC(=O)Nc1cccc(Cl)c1Cl)C(=O)N[C@@H](CC(=O)O)C(=O)N[C@@H](Cc1ccccc1)C(N)=O (Boc-WK([CO-X7])DF-NH2)
Data request: From the items above, give an ordering by pIC50 that starts at the lowest reported number. // respond by listing labels in the order requested
Data returned: a, b, c
(a: 6.66, b: 8.07, c: 8.35)

----------
assay: Selectivity ratio of IC50 measured in guinea pig cortex to that of IC50 for guinea pig pancreas; conditions: Cavia porcellus
*1 amine or outer side, *2 acyl side, *3 side chain or, on linkers, in order; H or OH if unused. Where a SMILES comes first, the peptide text is derived from it. Side-chain parts run from the residue outwards. The star is where a group is joined. NHPh(4-CF3) = FC(F)(F)c1ccc(N*)cc1; Boc = CC(C)(C)OC(=O)*; CO = O=C([*:1])[*:2]; NHPh = c1ccc(N*)cc1; NHtBu = CC(C)(C)N*
Experimental readout: Selectivity

Worked examples, 2 compounds total:
Compound	Selectivity
CC(C)(C)NC(=O)NCCCC[C@H](NC(=O)[C@H](Cc1c[nH]c2ccccc12)NC(=O)OC(C)(C)C)C(=O)N[C@@H](CC(=O)O)C(=O)N[C@@H](Cc1ccccc1)C(N)=O (Boc-WK([CO-NHtBu])DF-NH2)	33
CC(C)(C)OC(=O)N[C@@H](Cc1c[nH]c2ccccc12)C(=O)N[C@@H](CCCCNC(=O)Nc1ccc(C(F)(F)F)cc1)C(=O)N[C@@H](CC(=O)O)C(=O)N[C@@H](Cc1ccccc1)C(N)=O (Boc-WK([CO-NHPh(4-CF3)])DF-NH2)	5

(I) CC(C)(C)OC(=O)N[C@@H](Cc1c[nH]c2ccccc12)C(=O)N[C@@H](CCCCNC(=O)Nc1ccccc1)C(=O)N[C@@H](CC(=O)O)C(=O)N[C@@H](Cc1ccccc1)C(N)=O (Boc-WK([CO-NHPh])DF-NH2)
(II) CC(C)(C)OC(=O)N[C@@H](Cc1c[nH]c2ccccc12)C(=O)N[C@@H](CCCC/N=C(\S)Nc1ccccc1Cl)C(=O)N[C@@H](CC(=O)O)C(=O)N[C@@H](Cc1ccccc1)C(N)=O
Data request: Form: Entry with minimum Selectivity (choose one): I / II Selection: enter the item's label.
Data returned: II
